# TARGET_OR_TEST_SYSTEM: ChlR1 (DDX11), (Homo sapiens, UniProt Q96FC9, Q23A)
# Sequence (Q96FC9 1-906 isoform Q96FC9-2 Q23A): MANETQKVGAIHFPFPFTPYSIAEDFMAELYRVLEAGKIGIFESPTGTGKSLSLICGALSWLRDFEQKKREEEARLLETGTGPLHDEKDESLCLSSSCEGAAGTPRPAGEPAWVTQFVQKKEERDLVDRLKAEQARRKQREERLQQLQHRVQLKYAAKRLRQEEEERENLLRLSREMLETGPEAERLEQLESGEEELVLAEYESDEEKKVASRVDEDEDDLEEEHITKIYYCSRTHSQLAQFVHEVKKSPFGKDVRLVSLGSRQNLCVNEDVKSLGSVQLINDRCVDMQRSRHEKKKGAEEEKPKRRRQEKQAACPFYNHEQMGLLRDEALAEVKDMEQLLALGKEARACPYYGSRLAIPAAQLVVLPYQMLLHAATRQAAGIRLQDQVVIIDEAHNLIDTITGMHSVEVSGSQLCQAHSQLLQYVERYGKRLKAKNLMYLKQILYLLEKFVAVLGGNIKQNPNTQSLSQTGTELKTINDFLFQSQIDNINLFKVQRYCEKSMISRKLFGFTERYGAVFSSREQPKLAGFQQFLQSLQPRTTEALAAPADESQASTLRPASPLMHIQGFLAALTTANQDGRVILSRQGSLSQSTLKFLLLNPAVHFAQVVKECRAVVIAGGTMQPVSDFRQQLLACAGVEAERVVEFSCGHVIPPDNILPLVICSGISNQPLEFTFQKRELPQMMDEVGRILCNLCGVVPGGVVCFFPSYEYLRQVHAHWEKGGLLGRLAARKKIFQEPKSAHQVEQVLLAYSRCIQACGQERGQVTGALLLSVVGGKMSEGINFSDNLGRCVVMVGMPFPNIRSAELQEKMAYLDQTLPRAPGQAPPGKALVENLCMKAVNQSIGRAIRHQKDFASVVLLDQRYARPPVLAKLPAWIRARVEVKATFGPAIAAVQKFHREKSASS
# TEST: nitrocellulose filter-binding (dot blot) assay
OBSERVABLE: Kd (nM)
One number for each entry, in nM.

Ask: Hi! What's the reported Kd for Nc1ncnc2c1ncn2[C@@H]1O[C@H](COP(=O)(O)OP(=O)(O)OP(=O)(O)O)[C@@H](O)[C@H]1O on ChlR1 (DDX11), (Homo sapiens, UniProt Q96FC9, Q23A)?
Result: 43.8
